Source: ChEMBL document CHEMBL3612009

experiment-summary: Cytotoxicity against mouse L929 cells assessed as cell viability after 96 hrs by alamarBlue assay
Assay type: cell-based
assay-metric: CC50 at 96 h

compound_structure_string=COc1ccc(/C(COc2ccc(Br)cc2)=N\NC(N)=S)cc1 assay_metric="CC50 at 96 h" value_reported="< 25.4 µM"
compound_structure_string=NC(=S)N/N=C(/COc1ccc(Br)cc1)c1ccccc1 assay_metric="CC50 at 96 h" value_reported="< 27.5 µM"
compound_structure_string=NC(=S)N/N=C(\COc1ccc2ccccc2c1)c1ccc(Br)cc1 assay_metric="CC50 at 96 h" value_reported="> 193 µM"
compound_structure_string=NC(=S)N/N=C(\COc1ccc(I)cc1)c1ccc(Br)cc1 assay_metric="CC50 at 96 h" value_reported="< 20.4 µM"
compound_structure_string=NC(=S)N/N=C(\COc1cccc(Br)c1)c1ccc(Br)cc1 assay_metric="CC50 at 96 h" value_reported="> 180 µM"
compound_structure_string=NC(=S)N/N=C(\COc1cccc(Cl)c1)c1ccc(Br)cc1 assay_metric="CC50 at 96 h" value_reported="< 50.2 µM"
compound_structure_string=NC(=S)N/N=C(\COc1cccc2ccccc12)c1ccc(Br)cc1 assay_metric="CC50 at 96 h" value_reported="< 96.5 µM"
compound_structure_string=NC(=S)N/N=C(\COc1ccc(Cl)cc1)c1ccc(Br)cc1 assay_metric="CC50 at 96 h" value_reported="< 25.1 µM"
